Experiment: Toxicity in sheep RBC assessed as induction of hemolysis at 0.625 to 80 uM incubated for 1 hr at 37 degC relative to control
Assay type: cell-based, Ovis aries, Erythrocyte
Settings: sheep red blood cells (erythrocytes), read-out: Activity
observation_type: hemolysis at 1 h, up to 80 µM

Can you look up the measured hemolysis at 1 h, up to 80 µM of O=C(Nc1cc(C(F)(F)F)c(Oc2ccc(Cl)cc2)c(C(F)(F)F)c1)c1cc(Cl)cc(Cl)c1O for me?
< 2%

###

Test: Half life in cefoperazone-treated C57Bl/6J mouse at 1 mg/kg, po dosed each day for 5 days by LC/MS-SRM analysis
Format: ADME, organism-based
Details: in vivo
observation_type: half-life

Can you look up the measured half-life of O=C(Nc1cc(C(F)(F)F)c(Oc2ccc(Cl)cc2)c(C(F)(F)F)c1)c1cc(Cl)cc(Cl)c1O for me?
10.7 h

###

Assay: Tmax in non-antibioticc-treated C57Bl/6J mouse at 0.3 mg/kg, iv and measured after 5 mins to 24 hrs by LC/MS-SRM analysis
Assay type: ADME, organism-based
Settings: in vivo
observation_type: Tmax
The reply must contain the numeric value and, after it, the unit.

Can you look up the measured Tmax of O=C(Nc1cc(C(F)(F)F)c(Oc2ccc(Cl)cc2)c(C(F)(F)F)c1)c1cc(Cl)cc(Cl)c1O for me?
10.2 min

###

Assay: Half life in non-antibioticc-treated C57Bl/6J mouse at 0.3 mg/kg, iv and measured after 5 mins to 24 hrs by LC/MS-SRM analysis
Type: ADME, organism-based
Details: in vivo
observation_type: half-life (h)
Express your answer in h, writing the number without its unit.

Can you look up the measured half-life of O=C(Nc1cc(C(F)(F)F)c(Oc2ccc(Cl)cc2)c(C(F)(F)F)c1)c1cc(Cl)cc(Cl)c1O for me?
5

###

Could you please report measured log10(MIC) for the items listed next?
Test system: Clostridioides difficile
Assay: Antimicrobial activity against Clostridioides difficile CD10463 incubated for 20 to 24 hrs by broth microdilution method
Assay type: functional
Values are log10 of MIC in µM.

Can you look up the measured log10(MIC) of O=C(Nc1ccc(Oc2ccc(Cl)cc2)c(I)c1)c1cc(Cl)cc(Cl)c1O for me?
-0.22

Can you check O=C(Nc1ccc(Oc2ccc(Cl)cc2)cc1I)c1cc(Cl)cc(Cl)c1O next?
-0.77

Can you check O=C(Nc1ccc(Oc2ccc(Cl)cc2)cc1Br)c1cc(Cl)cc(Cl)c1O next?
-0.74

Can you check N#Cc1cc(NC(=O)c2cc(Cl)cc(Cl)c2O)ccc1Oc1ccc(Cl)cc1 next?
-0.43

Can you check O=C(Nc1ccc(Oc2ccc(Cl)cc2)c(Cl)c1)c1cc(Cl)cc(Cl)c1O next?
-0.96

Can you check COc1cc(Oc2ccc(Cl)cc2)ccc1NC(=O)c1cc(Cl)cc(Cl)c1O next?
0.56

Can you check CN[C@H](CC(C)C)C(=O)N[C@H]1C(=O)N[C@@H](CC(N)=O)C(=O)N[C@H]2C(=O)N[C@H]3C(=O)N[C@H](C(=O)N[C@H](C(=O)O)c4cc(O)cc(O)c4-c4cc3ccc4O)[C@H](O)c3ccc(c(Cl)c3)Oc3cc2cc(c3O[C@@H]2O[C@H](CO)[C@@H](O)[C@H](O)[C@H]2O[C@H]2C[C@](C)(N)[C@H](O)[C@H](C)O2)Oc2ccc(cc2Cl)[C@H]1O [VANCOMYCIN] next?
0.32

Can you check O=C(Nc1ccc(Oc2ccc(Cl)cc2)cc1)c1cc(Cl)cc(Cl)c1O next?
0.15

Can you check O=C(Nc1cc(C(F)(F)F)c(Oc2ccc(Cl)cc2)c(C(F)(F)F)c1)c1cc(Cl)cc(Cl)c1O next?
-1.52

Can you check O=C(Nc1ccc(Oc2ccc(Cl)cc2)c(Br)c1)c1cc(Cl)cc(Cl)c1O next?
-1.00

Can you check O=C(Nc1cc(I)c(Oc2ccc(Cl)cc2)c(I)c1)c1cc(Cl)cc(Cl)c1O next?
-1.12

Can you check COc1cc(NC(=O)c2cc(Cl)cc(Cl)c2O)ccc1Oc1ccc(Cl)cc1 next?
0.41

Can you check O=C(Nc1ccc(Oc2ccc(Cl)cc2)c(F)c1)c1cc(Cl)cc(Cl)c1O next?
-0.87
